biological target: T1, purified interference factor(s) from Donor B (human); experiment: SPR, interference factor immobilized; % of Fig. 9 reference
T1 construct: the text names the donors 8, 19 and 30; also called interference in serum from Donor B
Assay Readout: interference binding, % of Reference Sequence (%)

For orientation, consider the following solved cases.
Look up interference binding, % of Reference Sequence: SEQ ID NO: 71 (VHH) VHH: EVQLVESGGGLVQPGGSLRLSCAASRSIGRLDRMGWYRHRPGEPRELVATITGGSSINYGDSVKGRFTISIDNSKNTVYLQMNSLRPEDTAVYYCNFNKYVTSRDTWGQGTLVTVSG 105

Look up interference binding, % of Reference Sequence: SEQ ID NO: 68 (VHH) VHH: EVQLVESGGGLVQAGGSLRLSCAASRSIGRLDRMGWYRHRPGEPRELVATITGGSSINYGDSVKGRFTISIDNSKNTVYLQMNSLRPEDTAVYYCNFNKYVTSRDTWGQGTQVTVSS 115

Look up interference binding, % of Reference Sequence: SEQ ID NO: 77 (VHH) VHH: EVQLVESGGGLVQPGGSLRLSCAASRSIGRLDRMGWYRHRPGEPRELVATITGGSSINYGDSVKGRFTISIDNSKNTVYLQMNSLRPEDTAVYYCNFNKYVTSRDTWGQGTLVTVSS 12

(1) SEQ ID NO: 65 (VHH) VHH: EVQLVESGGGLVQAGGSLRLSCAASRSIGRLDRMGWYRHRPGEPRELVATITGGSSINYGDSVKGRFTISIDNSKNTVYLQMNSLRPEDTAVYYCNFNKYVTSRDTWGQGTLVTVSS
(2) SEQ ID NO: 79 (VHH) VHH: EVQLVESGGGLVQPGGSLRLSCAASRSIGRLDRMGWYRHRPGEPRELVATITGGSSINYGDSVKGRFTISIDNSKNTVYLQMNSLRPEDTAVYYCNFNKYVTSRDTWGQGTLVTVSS
(3) SEQ ID NO: 84 (VHH) VHH: EVQLVESGGGLVQPGGSLRLSCAASRSIGRLDRMGWYRHRPGEPRELVATITGGSSINYGDSVKGRFTISIDNSKNTVYLQMNSLRPEDTAVYYCNFNKYVTSRDTWGQGTLVTVGS
(4) SEQ ID NO: 75 (VHH) VHH: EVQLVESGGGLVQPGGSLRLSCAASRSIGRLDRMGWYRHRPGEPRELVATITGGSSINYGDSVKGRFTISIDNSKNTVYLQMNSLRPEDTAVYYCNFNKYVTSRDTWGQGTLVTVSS
(5) SEQ ID NO: 86 (VHH) VHH: EVQLVESGGGSVQPGGSLRLSCAASRSIGRLDRMGWYRHRPGEPRELVATITGGSSINYGDSVKGRFTISIDNSKNTVYLQMNSLRPEDTAVYYCNFNKYVTSRDTWGQGTLVQVSS
Provide the items ranked by increasing interference binding, % of Reference Sequence. Returns: the labels arranged in the requested order. 5, 4, 2, 3, 1
(5: 6%, 4: 11%, 2: 17%, 3: 50%, 1: 121%)
